Source listed as ChEMBL document CHEMBL1131225.

- System: Neutrophil collagenase (Homo sapiens)
- Sequence (P22894 whole entry): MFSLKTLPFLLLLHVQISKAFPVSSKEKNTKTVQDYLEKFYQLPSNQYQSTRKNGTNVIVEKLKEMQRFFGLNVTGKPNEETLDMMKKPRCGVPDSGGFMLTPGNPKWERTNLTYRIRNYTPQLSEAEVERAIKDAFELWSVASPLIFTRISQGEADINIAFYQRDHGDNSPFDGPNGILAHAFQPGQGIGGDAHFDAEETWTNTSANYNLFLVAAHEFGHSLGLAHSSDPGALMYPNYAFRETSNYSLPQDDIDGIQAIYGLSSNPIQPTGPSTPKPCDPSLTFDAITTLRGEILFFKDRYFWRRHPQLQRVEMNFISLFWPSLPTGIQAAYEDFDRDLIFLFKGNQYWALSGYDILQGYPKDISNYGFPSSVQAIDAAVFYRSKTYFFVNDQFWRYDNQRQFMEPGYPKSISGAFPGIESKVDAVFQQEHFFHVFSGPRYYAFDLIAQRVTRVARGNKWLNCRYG
- Assay Remarks: Inhibition of Matrix metalloprotease-8
Record form. Attribute: Ki. Fill in for each entry.
Give bare numbers, in nM.

Output Ki of CNC(=O)CC[C@@H](N[C@@H](CCc1ccccc1)C(=O)N[C@@H](CCCCNC(C)=O)C(=O)NC)C(=O)O
293

Please report Ki for the following compound: CNC(=O)[C@@H]1CCCCNC(=O)C[C@H](C(=O)O)N[C@@H](CCc2ccccc2)C(=O)N1
531

Please look at this compound and report its Ki: CNC(=O)[C@@H]1CCCCNC(=O)CC[C@H](C(=O)O)N[C@@H](CCc2ccc(-c3ccccc3)cc2)C(=O)N1
9

# return recorded Ki for input CNC(=O)[C@@H]1CCC(=O)OCCNC(=O)CC[C@H](C(=O)O)N[C@@H](CCc2ccccc2)C(=O)N1
10

As a next step, examine the compound that follows.
Supply Ki value. Item: CNC(=O)[C@@H]1CCCCNC(=O)CC[C@H](C(=O)O)N[C@@H](CCc2ccccc2)C(=O)N1
17
